Would you mind telling me the reported protein stability index of each entry?
B1: ZNF207 (parent)
chain: FPSAGQAQAAVQGPVGTDFKPLNS

# Variants of: B1
# experimentalProtocol: protein stability index of a GFP-peptide fusion (GPS, HEK-293T) (PSI 1-6); higher = more stable;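 further: lentivirally expressed fusions sorted by FACS into six bins by GFP to DsRed ratio, PSI derived from sequencing read proportions per bin multiplied by bin number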
# settings: c terminus: a fixed tail appended
Give bare numbers.

Example entries begin here.
FPSAGQAQAAVQGPVCTDFKPLNS [G16C] : 3.37
FPSALQAQAAVQGPVGTDFKPLNS [G5L] : 3.19
FPSAGQAQAAVEGPVGTDFKPLNS [Q12E] : 3.18

For every record below, what is its protein stability index?
1. FPSAGYAQAAVQGPVGTDFKPLNS [Q6Y]
2. FPSAGQAQAAVQWPVGTDFKPLNS [G13W]
3. FPSAGQAQDAVQGPVGTDFKPLNS [A9D]

1.94
2.53
4.02

For every record below, what is its protein stability index?
1. FLSAGQAQAAVQGPVGTDFKPLNS [P2L]
2. FPSAGQAQAKVQGPVGTDFKPLNS [A10K]
3. FPSAGQAQAAVQGPVGTDFKPLAS [N23A]
4. FPSAGQAQAAVQGKVGTDFKPLNS [P14K]
5. FPSAGQAQAAVQGPVGTDFKPFNS [L22F]
6. FPSAGQAQAAVQGPVGTDEKPLNS [F19E]
7. FPQAGQAQAAVQGPVGTDFKPLNS [S3Q]
8. FPSAGQDQAAVQGPVGTDFKPLNS [A7D]

[3.41, 2.87, 2.88, 2.8, 3.61, 4.06, 3.81, 3.98]

For every record below, what is its protein stability index?
1. FPSAGQAQAAVQGPVGTTFKPLNS [D18T]
2. FPSAGQAQAAVQGPVGSDFKPLNS [T17S]
3. FPSAGQAPAAVQGPVGTDFKPLNS [Q8P]
4. FPSAGQAQAAVQEPVGTDFKPLNS [G13E]
5. FPSAGQAQAAVQGPVGTDFKPLSS [N23S]

1: 3.4; 2: 3.88; 3: 3.38; 4: 3.79; 5: 3.25

For every record below, what is its protein stability index?
1. FPSAGRAQAAVQGPVGTDFKPLNS [Q6R]
2. FPSAGQAQKAVQGPVGTDFKPLNS [A9K]
3. FPSAGQAQAAVCGPVGTDFKPLNS [Q12C]

1. 3.01
2. 3.52
3. 3.51
